This collection of values is drawn from PubChem BioAssay (EPA / NIEHS).

- Read-out: Nuclear factor erythroid 2-related factor 2 (Homo sapiens) (UniProt Q16236)
- Sequence (Q16236 whole entry, looked up): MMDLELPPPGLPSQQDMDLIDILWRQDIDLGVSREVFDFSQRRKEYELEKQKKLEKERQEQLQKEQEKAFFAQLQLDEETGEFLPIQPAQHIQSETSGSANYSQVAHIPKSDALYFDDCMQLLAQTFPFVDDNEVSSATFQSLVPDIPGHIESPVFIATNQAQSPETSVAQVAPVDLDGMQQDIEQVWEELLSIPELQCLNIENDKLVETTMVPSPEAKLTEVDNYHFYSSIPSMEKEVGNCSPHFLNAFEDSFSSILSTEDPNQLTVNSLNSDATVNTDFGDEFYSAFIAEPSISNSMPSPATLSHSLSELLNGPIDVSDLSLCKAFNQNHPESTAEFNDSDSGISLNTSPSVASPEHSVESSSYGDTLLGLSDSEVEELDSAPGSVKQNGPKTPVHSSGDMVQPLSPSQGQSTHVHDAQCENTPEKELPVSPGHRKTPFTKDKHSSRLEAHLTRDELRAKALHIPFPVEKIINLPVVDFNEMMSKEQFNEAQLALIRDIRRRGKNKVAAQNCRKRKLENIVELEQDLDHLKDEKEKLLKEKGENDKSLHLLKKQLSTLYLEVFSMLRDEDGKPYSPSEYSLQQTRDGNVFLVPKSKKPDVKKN
- assayNotes: LTEA_HepaRG_NFE2L2: Life Technologies and Expression Analysis (LTEA) Assay for Nuclear factor erythroid 2-related factor 2 (NFE2L2) Transcription Factor using HepaRG (AID 2283527);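 for outcome: TaqMan qRT-PCR transcript level normalised to ACTB GAPDH and POLR2A housekeeping genes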
- settings: mRNA level, 48 h; actives raise or lower the signal
Calls of active or inactive are those of the source. Rule for the calls: active = hit-call score of the fitted dose curve at least 0.9, where 1 is the maximum; inactive = score below 0.9.
A correct response names exactly one class from Yes for active, No for inactive

Record lookup: outcome of this test for O=c1n(CC2CO2)c(=O)n(CC2CO2)c(=O)n1CC1CO1 (stereo not drawn) ?
No

Record lookup: outcome of this test for `COCCOc1cc2cc(C(=O)NC3CCN(C(C)C)CC3)n(CC(=O)Nc3ccc(Cl)cn3)c2cn1` ?
No

Record lookup: outcome of this test for `Clc1nc(Cl)c(Cl)c(Cl)c1Cl` ?
No

Record lookup: outcome of this test for CNS(=O)(=O)c1cc(C(=O)N2CCC(CCN3C4CCC3CC(n3c(C)nc5ccccc53)C4)(c3cccc(F)c3)CC2)c(Cl)cc1F (stereo not drawn) ?
No

Record lookup: outcome of this test for CC/C(=C\C(=N/O)C(N)=O)C(C)[N+](=O)[O-] (stereo not drawn) ?
No

Record lookup: outcome of this test for `CC(C)=CCC/C(C)=C/CO` ?
No

Record lookup: outcome of this test for `CCCCCCCCCCCCc1ccccc1` ?
No

Record lookup: outcome of this test for `CCC(C)(C)C(=O)O[C@H]1C[C@@H](C)C=C2C=C[C@H](C)[C@H](CC[C@@H]3C[C@@H](O)CC(=O)O3)[C@H]21` ?
No

Record lookup: outcome of this test for `CC(=O)OC[C@H]1O[C@@](COC(C)=O)(O[C@H]2O[C@H](COC(C)=O)[C@@H](OC(C)=O)[C@H](OC(C)=O)[C@H]2OC(C)=O)[C@@H](OC(C)=O)[C@@H]1OC(C)=O` ?
No

Record lookup: outcome of this test for CCCCC(CC)COC(=O)CCCCCCCCC(=O)OCC(CC)CCCC (stereo not drawn) ?
No

Record lookup: outcome of this test for `Cc1ccc(C)c(O)c1` ?
No

Record lookup: outcome of this test for `CC[C@H]1CC[C@H](NCc2cc3c(cc2OC)[C@H]2C[C@H]2C(=O)N3C)[C@H](c2ccccc2)N1` ?
No

Record lookup: outcome of this test for `COC(=O)CC(=O)OC` ?
No

Record lookup: outcome of this test for `O=C(NS(=O)(=O)/C=C/c1ccccc1)c1ccc(F)cc1Cl` ?
No

Record lookup: outcome of this test for `Cc1ccc(S(=O)(=O)O)cc1C` ?
No

Record lookup: outcome of this test for `COc1ccc2sc(C(=O)Nc3nnn[nH]3)c(OC(C)C)c2c1` ?
Yes

Record lookup: outcome of this test for `Nc1cccc(N)c1` ?
No

Record lookup: outcome of this test for `CC(=O)OCCC(C)C` ?
No

Record lookup: outcome of this test for Fc1ccccc1[C@@H](F)COC1CCC(Nc2ncnc3[nH]ncc23)CC1 (stereo partly drawn) ?
Yes

Record lookup: outcome of this test for `CCOCCOCCOCCO` ?
No

Record lookup: outcome of this test for `CNCc1ccc(NC(=O)c2c[nH]c3c2C(=O)CCC3)cc1` ?
No

Record lookup: outcome of this test for CCOC(=O)c1ccc(C2CCC(NC[C@H](O)COc3ccc(O)c(NS(C)(=O)=O)c3)CC2)cc1 (stereo partly drawn) ?
No

Record lookup: outcome of this test for `COc1cccc(-c2ccc(/C=C\CN3CCCCCC3)cc2Cl)c1` ?
Yes

Record lookup: outcome of this test for `Cc1ccc(O)cc1` ?
No

Record lookup: outcome of this test for `CCNc1ccccc1` ?
No

Record lookup: outcome of this test for CC(C)CC(C)(O)C#CC(C)(O)CC(C)C (stereo not drawn) ?
No

Record lookup: outcome of this test for `O=C1CCCCCN1` ?
No

Record lookup: outcome of this test for `Cn1cnc([N+](=O)[O-])c1Sc1ncnc2nc[nH]c12` ?
No

Record lookup: outcome of this test for `CC(C)=CCCC(C)=CC=O` ?
No

Record lookup: outcome of this test for `CC(=O)c1ccc2c(c1)[C@H](NC(=O)c1ccc(F)cc1)[C@@H](O)C(C)(C)O2` ?
No

Record lookup: outcome of this test for O=C1CCC(N2C(=O)c3ccccc3C2=O)C(=O)N1 (stereo not drawn) ?
No

Record lookup: outcome of this test for CC(C)=CCCC(C)CCO (stereo not drawn) ?
No

Record lookup: outcome of this test for `C=CC(=C)CCC=C(C)C` ?
No

----------
- Read-out: ABC Transporter (ABCC3), ABCC3 (gene 8714)
- assayNotes: LTEA_HepaRG_ABCC3: Life Technologies and Expression Analysis (LTEA) Assay for ABC Transporter (ABCC3) using HepaRG (AID 2283462)
- settings: mRNA level, 48 h; actives raise or lower the signal
- Protocol: LTEA_HepaRG is a cell based, multiplexed-readout assay that uses HepaRG, a human liver cell line, with measurements taken at 48 hours after chemical dosing on a 96-well plate.LTEA_HepaRG_ABCC3 is one of 102 assay component(s) measured in the LTEA HepaRG cell culture assay. It is a marker of NR mediated transport.Data from the assay component LTEA_HepaRG_ABCC3 was analyzed into 1 endpoint. […]
Calls of active or inactive are those of the source. Rule for the calls: active = hit-call score of the fitted dose curve at least 0.9, where 1 is the maximum; inactive = score below 0.9.
A correct response names exactly one class from True for active, False for inactive

Record lookup: outcome of this test for `COC(=O)CC(=O)OC` ?
False

Record lookup: outcome of this test for `Cc1[nH]cnc1C[C@H]1CCc2c(C)c3ccccc3n2C1=O` ?
True

Record lookup: outcome of this test for `Cn1c(=O)c2c(ncn2C)n(C)c1=O` ?
False

Record lookup: outcome of this test for CNS(=O)(=O)c1cc(C(=O)N2CCC(CCN3C4CCC3CC(n3c(C)nc5ccccc53)C4)(c3cccc(F)c3)CC2)c(Cl)cc1F (stereo unspecified) ?
True

Record lookup: outcome of this test for `CC(C)CCO` ?
False

Record lookup: outcome of this test for `Nc1cccc(N)c1` ?
False

Record lookup: outcome of this test for `Cc1c(-c2cccnc2)c2ccccc2n1CCCCC(=O)O` ?
False

Record lookup: outcome of this test for CC(O)CN(CCN(CC(C)O)CC(C)O)CC(C)O (stereo unspecified) ?
False

Record lookup: outcome of this test for CC(C)CC(C)(O)C#CC(C)(O)CC(C)C (stereo unspecified) ?
False

Record lookup: outcome of this test for `CC(=O)OC[C@H]1O[C@@](COC(C)=O)(O[C@H]2O[C@H](COC(C)=O)[C@@H](OC(C)=O)[C@H](OC(C)=O)[C@H]2OC(C)=O)[C@@H](OC(C)=O)[C@@H]1OC(C)=O` ?
False

Record lookup: outcome of this test for `CCCCCCCCO` ?
False

----------
- Read-out: Glutamate-cysteine ligase regulatory (GCLM), GCLM (gene 2730)
- assayNotes: LTEA_HepaRG_GCLM: Life Technologies and Expression Analysis (LTEA) Assay for Glutamate-cysteine ligase regulatory (GCLM) using HepaRG (AID 2283500)
- settings: mRNA level, 48 h; actives raise or lower the signal
Calls of active or inactive are those of the source. The calls were made as follows: active = hit-call score of the fitted dose curve at least 0.9, where 1 is the maximum; inactive = score below 0.9.
A correct response names exactly one class from active, inactive

Record lookup: outcome of this test for `CCCCCCCCCCCCc1ccccc1` ?
inactive

Record lookup: outcome of this test for `CCc1cc(SCc2sc(-c3ccc(C(F)(F)F)cc3)nc2CN2CCN(c3ccc(OC)cc3)CC2)ccc1OCC(=O)O` ?
active

Record lookup: outcome of this test for `O=C1CCCCCN1` ?
inactive

Record lookup: outcome of this test for `O=C(O)c1cccc(N(Cc2cccnc2)c2ccc(OC(F)F)c(OC(F)F)c2)c1` ?
inactive

Record lookup: outcome of this test for `CC(=O)OC[C@H]1O[C@@](COC(C)=O)(O[C@H]2O[C@H](COC(C)=O)[C@@H](OC(C)=O)[C@H](OC(C)=O)[C@H]2OC(C)=O)[C@@H](OC(C)=O)[C@@H]1OC(C)=O` ?
inactive

Record lookup: outcome of this test for `O=C(O)c1cccc(Oc2ccccc2)c1` ?
inactive

Record lookup: outcome of this test for `CN(C)c1ccc(Cc2ccc(N(C)C)cc2)cc1` ?
inactive

Record lookup: outcome of this test for `O=C(OC[C@H]1O[C@@H](OC(=O)c2cc(O)c(O)c(OC(=O)c3cc(O)c(O)c(O)c3)c2)[C@H](OC(=O)c2cc(O)c(O)c(OC(=O)c3cc(O)c(O)c(O)c3)c2)[C@@H](OC(=O)c2cc(O)c(O)c(OC(=O)c3cc(O)c(O)c(O)c3)c2)[C@@H]1OC(=O)c1cc(O)c(O)c(OC(=O)c2cc(O)c(O)c(O)c2)c1)c1cc(O)c(O)c(OC(=O)c2cc(O)c(O)c(O)c2)c1` ?
active

Record lookup: outcome of this test for `O=P(OC(CCl)CCl)(OC(CCl)CCl)OC(CCl)CCl` ?
active

Record lookup: outcome of this test for `C=CC(=C)CCC=C(C)C` ?
inactive

Record lookup: outcome of this test for `CC[C@H](C)C(=O)O[C@H]1C[C@@H](C)C=C2C=C[C@H](C)[C@H](CC[C@@H]3C[C@@H](O)CC(=O)O3)[C@H]21` ?
inactive

Record lookup: outcome of this test for `COCCOc1cc2cc(C(=O)NC3CCN(C(C)C)CC3)n(CC(=O)Nc3ccc(Cl)cn3)c2cn1` ?
inactive
